# Test system: A549
# Assay explanation: Cytotoxicity against human A549 cells assessed as reduction in cell viability after 24 hrs by WST8 assay
# Format: functional, cell-based
# Test context: A549, 24 h
Mark each entry y if its IC50 sits below 10 µM, and n for all others.

chemical_string=COc1ccc(Cn2cc(/C=C(\C#N)C(=O)c3c[nH]c4cc(F)ccc34)c3ccccc32)cc1 category_label=n

Given the entry COc1ccc2[nH]cc(C(=O)/C(C#N)=C/c3c[nH]c4cc(F)ccc34)c2c1 , would its reported IC50 be below 10 µM?
n

Consider the molecule COc1ccc2[nH]cc(/C=C(\C#N)C(=O)c3c[nH]c4ccc(OC)cc34)c2c1 . Is its IC50 strictly less than 10 µM?
n
